Values were extracted from PubChem BioAssay (NCI).

System: MALME-3M melanoma
Experiment: NCI-60 one-dose screen, 48 h (100 = growth as untreated, 0 = no growth, -100 = all killed)
Conditions: 10 µM unless noted
This is part of a sample that, as a whole, favours compounds with a hit. Of some 83,000 tested, about 20% had one in any assay.
Property Name: growth (%)

- O=C(N/N=C/c1ccc([N+](=O)[O-])cc1)c1ccc2nc(-c3ccc(Cl)cc3)[nH]c2c1: 7.79
- CC1O[C@@H]2C[C@@](O)([C@H]1O)n1c3ccccc3c3c4c(c5c6ccccc6n2c5c31)C(=O)NC4=O (some centres undefined): 50.3
- C[C@@H](CO)[C@@H]1CC[C@]2(C(=O)N3CCN(C)CC3)CC[C@]3(C)[C@H](CC[C@@H]4[C@@]5(C)CC[C@H](O)C(C)(C)[C@@H]5CC[C@]43C)[C@@H]12: 105
- C=C1C(=O)O[C@H]2[C@H]1CC/C(COC(=O)NCc1ccc(Cn3c(=O)sn(-c4ccc(OC)cc4)c3=O)cc1)=C\CC[C@@]1(C)O[C@@H]21: -3.77

---

Test system: ACHN renal
Experiment: NCI-60 one-dose screen, 48 h
Details: 10 µM unless noted
Description: Growth inhibition of the ACHN human tumor cell line is measured as a screen for anti-cancer activity. Cells are grown in 96 well plates and exposed to the test compound for 48 hours. Compounds are tested at a single concentration, which is 10^-5 M for most compounds. The reported endpoint is percent growth (GI% or GIPRCNT), where numbers from 0 - 100% represent growth inhibition, and numbers from -100% - 0 represent cell death. For example, a value of 40 represents 60% growth inhibition. […]
This is part of a sample that, as a whole, favours compounds with a hit. Of some 83,000 tested, about 20% had one in any assay. Calls of active or inactive are those of the source. The calls were made as follows: active = growth percent below 10; inactive = the rest.
Labels: active, inactive

* O=C1c2cccnc2C(=O)c2c1c(C(=O)OCCCN1CCCCC1)c1ccccn21 | active
* COC(=O)C1=Nc2ccc(F)cc2/C1=C\c1sc(Nc2ccc(O)cc2)nc1O | inactive
* CCCCCCCC/C=C\CCCCCCCCOc1ccccc1CC(=O)NCC[N+]1(C)CCCCC1 | inactive
* Oc1c(CN2CCCC2)cc(COCc2ccccc2)c2cccnc12 | active
* CC/C=C\C/C=C/C=C1/C(=O)C=C[C@@H]1C/C=C\CCCC(=O)OC | inactive
* O=C(Cn1nnc2ccccc21)Nc1ccc(-c2nc3ccccc3s2)cc1 | inactive
* COc1cc2c(c(OC)c1OC)C(=O)CC(c1cccc(NC(=O)c3ccccc3Br)c1)O2 (stereo not given) | inactive
* O=C1Nc2ccccc2/C1=C/c1cn(C[C@@H](O)Cn2c3ccccc3c(=O)c3ccccc32)c2ccccc12 | inactive
* Cc1cc(F)ccc1S(=O)(=O)Nc1cc(-c2c(O)ccc3ccccc23)c(O)c2ccccc12 | active
* COc1ccc(C2=NN(C(C)=O)C(c3ccc(Oc4ccnc5cc(Cl)ccc45)c(OC)c3)C2)cc1 (stereo not given) | inactive
* O=C(Nc1ncc(Cc2ccccc2Cl)s1)c1cccs1 | inactive
* O=C(N/N=C/c1ccc(O)cc1O)c1ccc(Nc2ccnc(C(F)(F)F)c2)cc1 | inactive
* CCN1C(=O)N(CC)C2C1NN=c1s/c(=C\c3cc4ccccc4[nH]3)c(=O)n12 (stereo not given) | inactive
* CN1CCN(Cc2ccc(NC(=O)c3cncc(C#Cc4cnn5ccccc45)c3)cc2C(F)(F)F)CC1 | active
* COc1ccc(C2=NN(C(=O)c3cc(OC)c(OC)c(OC)c3)C(c3ccc(N(C)C)cc3)C2)cc1 (stereo not given) | inactive
* CCCCCCCCCCCCCCCCOC(=O)c1c(C)[nH]c(/C=C2\N=C(c3ccc[nH]3)C=C2OC)c1C | inactive
* COc1cc2oc(-c3cccc(NC(=O)c4ccc5c(c4)OCO5)c3)cc(=O)c2c(OC)c1OC | inactive
* NC(=O)c1ccc(NC(=O)c2oc3ccccc3c2-c2cnn(-c3ccccc3)c2)cc1 | active
* N=C(N)c1ccc(-c2ccc(-c3ccc(Cl)cc3Cl)s2)cc1F | active
* CSCCC(NC(=O)c1ccccc1)C(=O)N/N=C1\S/C(=C/c2ccc(Cl)cc2)C(=O)N1C (stereo not given) | inactive
* CCN(CC)CCNC(=O)c1ccc(-c2nc3ccc4[nH]ncc4c3c3c2CCCC3)cc1 | inactive
* CN1CCN(c2ccc3c(c2)nc(NNC(=O)c2cnccn2)c2cccn23)CC1 | active
* COc1ccc(C2=Nc3c/c(=C\c4c(O)[nH]c5cc(Cl)ccc45)ccc3=N2)cc1 | inactive
* CC(C(=O)O)n1c(O)c(C=Nc2cccnc2)sc1=S (stereo not given) | inactive
* CCCCc1oc2ccccc2c1C(=O)c1ccc(O)cc1 | inactive
* Oc1c(Cl)cc(Cl)c2ccc(Cn3cc(-c4cccc(C(F)(F)F)c4)nn3)nc12 | inactive
* COc1ccc(Cl)cc1Nc1nc(C(F)(F)F)ccc1C(=O)N/N=C/c1ccccc1Cl | active
* O=C(/C=C/c1ccccc1)Nc1ncc(Cc2ccccc2)s1 | inactive
* CCn1cc(CNc2ccc(C(=O)Nc3cc4cc(OC)c(OC)cc4c(C)n3)cc2)c(C)n1 | inactive
* COc1cccc(/C=C/C(=O)c2cc3c(N)c(C(=O)Nc4cccc(Cl)c4C)sc3nc2C)c1 | active
* COC(c1ccc2ccccc2c1)C(C)C(F)F (stereo not given) | inactive
* Cc1cc2nc(-c3c(-c4ccc(F)cc4)nc4sccn34)[nH]c2cc1C | inactive
* CC1(C)C2CC=C(/C=N/NC(=O)C3CCC(=O)N3)C1C2 (stereo not given) | inactive
* CCCCCCC(CCCC)COC(=O)c1ccc(Cl)cc1 (stereo not given) | inactive
* COc1cc2cc(Oc3ccc(NC(=O)Nc4ccccc4)cc3)c(C)nc2cc1OCCN1CCCCC1 | inactive
* N#C/C(=C\c1ccc(Br)cc1)c1cc2ccccc2[nH]1 | inactive
* O=C(Nc1nc(C(=O)N2CCN(C(c3ccccc3)c3ccccc3)CC2)cs1)c1ccc(NC2CCCCC2)c([N+](=O)[O-])c1 | inactive
* COc1ccc2nc3ccccc3c(NCc3ccc(F)cc3)c2c1 | active
* CCN1C(=O)N(CC)C2C1NN=C1SCC(=O)N12 (stereo not given) | inactive
* CCCCCCCCCCCCCCCCCCOc1ccccc1CC(=O)NCC[N+]1(C)CCOCC1 | inactive
